readout.name: melting point

Examples from the recorded data:
molecule: CCCCCCCCCCCCCCC(=O)NC1CC(C)(C)N(CC#N)C(C)(C)C1
melting point: 101 °C
//
molecule: O=C(CNc1ccccc1)Nc1ccc(F)cc1C(=O)O
melting point: 194 to 195 °C
//
molecule: O=C(NCc1ccccc1)c1ccnc(NC(=O)c2cccc(C(F)(F)F)c2)c1
melting point: 87 to 88 °C

What value of melting point has been reported for the following molecule? COC(=O)c1c(-c2ccc(C(F)(F)F)cc2)ccc2ccccc12 74 to 76 °C

What value of melting point has been reported for the following molecule? COCCNC(=O)c1cc(F)cc(-c2cccc3c(F)c(Cc4cccc(C(F)(F)F)c4)sc23)c1 109 to 110 °C

What value of melting point has been reported for the following molecule? CSc1sccc1C#N 112 to 115 °C

What value of melting point has been reported for the following molecule? CCC(CC)(NC(=O)CCn1cnc(CC#N)c1)c1ccccc1 121 to 122 °C

What value of melting point has been reported for the following molecule? CC(=O)c1ccc(F)c(N(C)C(C)=O)c1 75.5 to 76.5 °C

What value of melting point has been reported for the following molecule? CC(C)(C)OC(=O)N1CCN(c2cccc(N)c2)CC1 218 °C

What value of melting point has been reported for the following molecule? Cc1nc2c(N[C@@H]3c4ccccc4C[C@H]3O)cc(C(=O)O)cn2c1C (relative stereo) 246 to 249 °C

What value of melting point has been reported for the following molecule? CC(C)c1ccnc(C(=O)c2[nH]c3ccc(Cl)cc3c2CC(=O)O)c1 227 to 228 °C

What value of melting point has been reported for the following molecule? Cc1ccc(C(=O)Nc2ccccc2C#N)c([N+](=O)[O-])c1 230 to 232 °C

What value of melting point has been reported for the following molecule? COC(=NS(=O)(=O)c1ccccc1Cl)Nc1nc(C)nc(OC)n1 156 to 157 °C

What value of melting point has been reported for the following molecule? COc1cc(Nc2nccc(-c3sc(-c4cccnc4)nc3C)n2)cc(OC)c1 229 to 230 °C

What value of melting point has been reported for the following molecule? COC(=O)c1ccc(-c2nc3c(OC)cccc3s2)cc1 165 to 167 °C

What value of melting point has been reported for the following molecule? CCOC(=O)c1cn(C2CC2)c2nc(Cl)c(F)cc2c1=O 176 to 178 °C

What value of melting point has been reported for the following molecule? Cc1cc(CCC(=O)c2ccc(-c3ccc(C(F)(F)F)cc3)s2)cc(C)c1OC(C)(C)C(=O)O 157 to 158 °C

What value of melting point has been reported for the following molecule? CC(Oc1ccc(Oc2ncc(Cl)cc2Cl)cc1)C(=O)N1CCCO1 (configuration not stated) 106 to 108 °C

What value of melting point has been reported for the following molecule? COc1ccc(-c2ccc(Cl)nn2)c(OCC(O)CNC(C)C)c1 (configuration not stated) 128 to 129 °C

What value of melting point has been reported for the following molecule? COc1cc2c(cc1O)CCC1C2CCC2(C)C(=O)CCC12 (configuration not stated) 167 to 170 °C

What value of melting point has been reported for the following molecule? O=C(OCc1ccc(Cl)cc1)c1ncccc1OCc1ccc(Cl)cc1 92 to 94 °C

What value of melting point has been reported for the following molecule? Cc1ccc(C2CCN(CCc3c(C)[nH]c4ccccc34)CC2)cc1 192 to 194 °C

What value of melting point has been reported for the following molecule? O=C(O)C(CCc1ccccc1[N+](=O)[O-])N1C(=O)c2ccccc2C1=O (configuration not stated) 177 to 179 °C
